Documented GI50 across a set of compounds
# Test system: NCI-H23
# Experiment Description: NCI tumour cell line growth inhibition, 48 h
The source made the active and inactive calls. No stated cut-off is given here; in the data, active = GI50 up to about 1.1 µM and inactive = higher.
Measured Property: GI50

Compound: CCOC(=O)NC(NC1=NCCS1)(C(=O)OCC)C(F)(F)F (stereo not drawn)
Reported Measurement: > 100 µM (inactive)
//
Compound: Clc1cccc(Cl)c1C1SCC2=Nc3ccccc3CN21 (stereo not drawn)
Reported Measurement: 14.6 µM (inactive)
//
Compound: Cn1c(=N)n[n+]([O-])c2ccccc21
Reported Measurement: 2.16 µM (inactive)
//
Compound: c1ccc(NNN2NC(c3ccccc3)C2c2ccccc2)cc1 (stereo not drawn)
Reported Measurement: 92.3 µM (inactive)
//
Compound: N=c1oc2ccc(Cl)cc2cc1C(=O)NC1CCCCC1
Reported Measurement: > 100 µM (inactive)
//
Compound: CN1c2ccccc2N(C)C23N(C)c4ccccc4N(C)C12N(C)c1ccccc1N3C (stereo not drawn)
Reported Measurement: > 100 µM (inactive)
//
Compound: O=C(NCO)NCOCn1c(=O)n(CO)c(=O)n(CO)c1=O
Reported Measurement: 19.8 µM (inactive)
//
Compound: CCCSc1cc(Cl)c(C)cc1S(=O)(=O)n1ccnc1OCCCN(C)C
Reported Measurement: > 100 µM (inactive)
//
Compound: COC(=O)c1cc(/C=C/C(=O)Cc2ccccc2)cn1S(=O)(=O)c1ccccc1
Reported Measurement: > 100 µM (inactive)
//
Compound: N=C(N)NCC1CCCCCCN1 (stereo not drawn)
Reported Measurement: > 100 µM (inactive)
//
Compound: CC1=CC(=O)C(C)(C2=NC(C)(C)CO2)c2ccccc21 (stereo not drawn)
Reported Measurement: > 100 µM (inactive)
//
Compound: N#[N+][c-]1c(-c2ccccc2)n[nH]c1=O
Reported Measurement: > 100 µM (inactive)
//
Compound: OC(c1ccc(F)cc1)C(F)(F)c1nc2ccccc2o1 (stereo not drawn)
Reported Measurement: > 100 µM (inactive)
//
Compound: C[C@H]1[C@H](N2CCCC2)O[Si](C(C)(C)C)(C(C)(C)C)[C@@H]1C
Reported Measurement: > 100 µM (inactive)
//
Compound: COC(=O)C1=C(C[S+]([O-])c2ccccc2[N+](=O)[O-])ON(C)C1c1ccccc1 (stereo not drawn)
Reported Measurement: > 100 µM (inactive)
//
Compound: O=C(NNC(=O)c1ccncc1)c1ccncc1
Reported Measurement: > 100 µM (inactive)
//
Compound: O=C1CCC[C@H]2O[C@@H](COC(=O)c3ccccc3)C[C@H]2O1
Reported Measurement: > 100 µM (inactive)
//
Compound: COC(=O)C(=O)C(C(=O)C(=O)Nc1ccc(Cl)c(Cl)c1)c1nc2ccc(C(=O)c3ccccc3)cc2nc1O (stereo not drawn)
Reported Measurement: 47.6 µM (inactive)
//
Compound: COc1ccc2nc3cc(Cl)ccc3c(Nc3ccc(O)c(CN4CCN(C)CC4)c3)c2c1
Reported Measurement: 1.89 µM (inactive)
//
Compound: C/C1=C\CC[C@@]2(C)O[C@@H]2[C@H]2OC(=O)C(C)C2C[C@H]1O (stereo partly drawn)
Reported Measurement: > 100 µM (inactive)
//
Compound: COc1ccc2c(c1)C(=O)OCCC2
Reported Measurement: > 100 µM (inactive)
//
Compound: COc1ccc(/C=C2/CSCC3=C2N=C(S)NC3c2ccc(OC)c(OC)c2OC)c(OC)c1OC (stereo not drawn)
Reported Measurement: 18.9 µM (inactive)
//
Compound: Cc1cc(N)c2cc(NC(=O)Nc3ccc4nc(C)cc(N)c4c3)ccc2n1
Reported Measurement: > 100 µM (inactive)
//
Compound: COC(=O)N/N=C(\c1nc2ccc(Cl)cc2nc1O)C(O)c1ccc([N+](=O)[O-])cc1 (stereo not drawn)
Reported Measurement: > 100 µM (inactive)
//
Compound: O=C(O)c1nc2ccc(Cl)cc2[nH]c1=O
Reported Measurement: > 100 µM (inactive)
//
Compound: NC1=NS(=O)(=O)N=C(N)C1=Cc1ccc([N+](=O)[O-])o1
Reported Measurement: 17.3 µM (inactive)
//
Compound: Cc1ccc2nc(NC(=O)C(=O)C(C#N)c3nc4ccccc4s3)sc2c1 (stereo not drawn)
Reported Measurement: 35 µM (inactive)
//
Compound: O=c1[nH]c(S)nc2c1sc(=S)n2-c1ccccc1
Reported Measurement: > 100 µM (inactive)
//
Compound: COc1c(F)c(F)c(C(=O)/C=C2\Nc3ccccc3NC2=O)c(F)c1F
Reported Measurement: > 10 µM (inactive)
//
Compound: Cc1ccc(OCC2OC(n3cnc4c(N(C)C)nc(Br)nc43)CC2Oc2ccc(C)cc2)cc1 (stereo not drawn)
Reported Measurement: > 100 µM (inactive)
//
Compound: COc1ccc(-c2cc(O)c3cc(Cl)ccc3n2)cc1
Reported Measurement: > 100 µM (inactive)
//
Compound: N#CC(C#N)SCc1ccccc1
Reported Measurement: 10.5 µM (inactive)
//
Compound: CCN(CC)CCN(C)CCc1ccc(Br)cc1
Reported Measurement: > 100 µM (inactive)
//
Compound: Nc1nc(Cl)c(N)c(NC23CC4CC(CC(C4)C2)C3)n1
Reported Measurement: 2.23 µM (inactive)
//
Compound: Cc1cc2nc(O)c(CCC(=O)O)nc2cc1C
Reported Measurement: > 100 µM (inactive)
//
Compound: O=C1C(c2ccccc2)=[N+]([O-])c2ccc(Cl)cc21
Reported Measurement: 31.6 µM (inactive)
//
Compound: Cc1cc(NS(=O)(=O)c2ccc(Nc3c4ccccc4nc4ccc(C(=O)Nc5ccc(S(N)(=O)=O)cc5)cc34)cc2)no1
Reported Measurement: > 100 µM (inactive)
//
Compound: Cc1ccc([S+]([O-])c2sccc2C=O)cc1 (stereo not drawn)
Reported Measurement: 30.8 µM (inactive)
//
Compound: CN(C)C(=S)/N=c1\ss/c(=N\C(=S)N(C)C)n1-c1ccc(Cl)cc1
Reported Measurement: > 100 µM (inactive)
//
Compound: CC(CC(=O)CO[C@H]1[C@H](O)[C@@H](O)[C@@H](O)[C@@H]2NC(=O)c3c(cc4c(c3O)OCO4)[C@H]21)OC1OC(CO)C(O)C(O)C1O (stereo partly drawn)
Reported Measurement: 0.441 µM (active)
//
Compound: Nc1ncn([C@H]2C[C@H](O)[C@@H](CO)O2)c(=O)n1 [DECITABINE]
Reported Measurement: 118 µM (inactive)
//
Compound: CC1(C)CC(=O)c2c(nc3ccc4ccccc4c3c2-c2ccc(NC(=O)CCCCCCCCC(=O)Nc3ccc(-c4c5c(nc6ccc7ccccc7c46)CC(C)(C)CC5=O)cc3)cc2)C1
Reported Measurement: > 100 µM (inactive)
//
Compound: CN(C)C(=O)N(CCCl)N=O
Reported Measurement: > 100 µM (inactive)
